target: P. falciparum apicoplast DNA polymerase (Pf-apPOL) (Plasmodium falciparum, UniProt Q8ILY1); test: Fluorescence-based high-throughput DNA polymerase assay (molecular beacon), primary screen and dose-response; assay type: biochemical; conditions: DRC-1; 10'; concentration 2.5
Sequence (Q8ILY1 entry or part of it): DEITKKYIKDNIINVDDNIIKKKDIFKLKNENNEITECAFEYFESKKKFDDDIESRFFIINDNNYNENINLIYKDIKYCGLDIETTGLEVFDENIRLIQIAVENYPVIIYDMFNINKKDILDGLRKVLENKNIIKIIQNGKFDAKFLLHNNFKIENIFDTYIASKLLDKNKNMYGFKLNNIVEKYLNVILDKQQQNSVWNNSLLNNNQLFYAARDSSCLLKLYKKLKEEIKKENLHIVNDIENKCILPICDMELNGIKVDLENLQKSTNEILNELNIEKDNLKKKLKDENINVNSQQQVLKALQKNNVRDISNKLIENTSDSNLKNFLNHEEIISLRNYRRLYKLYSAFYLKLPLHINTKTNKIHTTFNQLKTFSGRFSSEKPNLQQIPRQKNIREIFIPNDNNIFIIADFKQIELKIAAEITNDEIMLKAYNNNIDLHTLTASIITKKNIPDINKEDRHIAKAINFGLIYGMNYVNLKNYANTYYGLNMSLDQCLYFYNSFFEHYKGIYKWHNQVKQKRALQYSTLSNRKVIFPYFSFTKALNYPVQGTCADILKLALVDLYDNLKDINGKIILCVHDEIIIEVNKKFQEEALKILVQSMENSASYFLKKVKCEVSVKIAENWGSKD
Provide the recorded % inhibition Apo pol 10' for the entries that follow.
Answers are plain numbers, in %.

// known answers, use as guide
Compound	Metric name	Result value
Cc1nn(CC(=O)NCCSCc2ccco2)c(C)c1Br	% inhibition Apo pol 10'	1.812
COc1ccc(S(=O)(=O)/N=C2\NC(=O)/C(=C3\C(=O)Nc4ccc([N+](=O)[O-])cc43)S2)cc1	% inhibition Apo pol 10'	18.5864
CSC(C)C(=O)C=CN(C)C (stereo not shown)	% inhibition Apo pol 10'	3.1346

Moving on to the next compound.
Challenge: Indicate its recorded % inhibition Apo pol 10'; the compound in question is COc1ccccc1CCC(=O)N1CCc2c(nc3cc(-c4ccccc4)[nH]n3c2=O)C1
Response given: 2.75

###

molecular target: UniProtKB Q8ILY1; experiment: Fluorescence-based high-throughput DNA polymerase assay (molecular beacon), primary screen and dose-response; assay type: biochemical; conditions: DRC-1; 10'; concentration 80
Class key for % inhibition Apo pol 10' values: small value (below 80%), mid value (80% to below 90%), large value (90% or more)

Compound	Target or system	Group
CCCCSc1nnc2c(n1)OC(c1ccc([N+](=O)[O-])o1)Nc1ccccc1-2 (centres unmarked) [KU0065811]	UniProtKB Q8ILY1	mid value
NS(=O)(=O)c1ccc(NC(=O)c2ccc(N3C(=O)CCC3=O)cc2)cc1 [KU0025331]	UniProtKB Q8ILY1	mid value
COc1ccc2c(c1)C(c1ccccc1OC)CC(=O)O2 (centres unmarked) [Molecule 38, COc1ccc2c(c1)C(CC(=O)O2)c1ccccc1OC]	UniProtKB Q8ILY1	large value

Challenge: State the class of the compound shown: COc1ccc(C=C2Oc3c(ccc4c3CN(c3ccc5c(c3)OCO5)CO4)C2=O)cc1OC [KU0199426]
Response given: small value

Challenge: Which of the defined bands does the recorded % inhibition Apo pol 10' of O=C1c2ccccc2C(=O)N1Oc1ccc([N+](=O)[O-])c([N+](=O)[O-])c1 [Molecule 66] sit within?
Response given: small value

Challenge: # bin label for COc1ccc(-c2cc(=O)c3cc(O)ccc3o2)cc1OC [KU0193655]
Response given: mid value

Challenge: For CCCCc1ccc(NC(=O)CSc2nc(O)c(C#N)c(C3CCCCC3)n2)c(C)c1 [Molecule 8] , which % inhibition Apo pol 10' bin applies?
Response given: large value

Challenge: Band assignment needed for NC(=O)c1cc[n+](CC2=C(C(=O)[O-])N3C(=O)[C@@H](NC(=O)[C@@H](c4ccccc4)S(=O)(=O)[O-])[C@H]3SC2)cc1.[Na+] [Molecule 9] please.
Response given: large value

Challenge: Which class is correct for the following compound? CCOC(=O)C(NCc1ccco1)(NC(=O)c1ccco1)C(F)(F)F (centres unmarked) [KU0276119]
Response given: small value

Challenge: Which bin should I file Cc1nn(CC(=O)NCCSCc2ccco2)c(C)c1Br [KU0267182] under?
Response given: small value

###

molecular target: P. falciparum apicoplast DNA polymerase (Pf-apPOL) (Plasmodium falciparum, UniProt Q8ILY1); test: Fluorescence-based high-throughput DNA polymerase assay (molecular beacon), primary screen and dose-response; format: biochemical; settings: DRC-2; 5'; concentration 2.5
Metric name: % inhibition Apo pol 5' (%)
One number for each entry, in %.

Reference set (4 entries):
Compound	% inhibition Apo pol 5' [%]
COc1cccc(C(=O)N2CCc3c(nc4cc(-c5ccccc5)[nH]n4c3=O)C2)c1OC [Molecule 22]	-0.913
O=C(Nc1c2c(nn1-c1ccc(Oc3ccccc3)cc1)CSC2)c1ccco1 [KU0055927]	8.44
O=C1C(=Cc2ccccc2O)Oc2ccc(O)cc21 [KU0196475]	-0.68
CC(=O)Nc1cc(C(=O)c2cccs2)nn(-c2ccc(Cl)cc2)c1=O [KU0267905]	7

Parameter requested: % inhibition Apo pol 5'. Apply to each item below.
1. O=C(O)c1cccc(N2N=C(C(F)(F)F)/C(=C/c3ccc(-c4ccccc4[N+](=O)[O-])o3)C2=O)c1 [Molecule 100]
2. COc1cccc(Oc2c(C(F)(F)F)oc3cc(OC(=O)N(C)C)ccc3c2=O)c1 [Molecule 52]
3. O=C(O)C(=O)Nc1nc(-c2ccc3c(c2)OCCO3)cs1 [Molecule 82, OC(=O)C(=O)Nc1scc(n1)c1ccc2c(c1)OCCO2]
4. Cc1ccccc1C(=O)N1CCc2c(nc3cc(-c4ccccc4)[nH]n3c2=O)C1 [Molecule 41]

Response given:
20
15
23
7
